- System: GRN mRNA
- measurement.description: GRN mRNA qPCR in SK-N-AS cells transfected with ASOs
- Assay type: cell-based, human
- experimental.parameters: Table 11; SK-N-AS, 120 nM, 48 hours; normalized to CO-1589
Oligonucleotides are written 5' to 3', each unit as a sugar letter and its base; * is a phosphorothioate linkage, no mark a phosphodiester; rarer units and linkages stand in square brackets, end groups in braces. Plain capitals give the bases only. e = 2'-O-(2-methoxyethyl) (MOE); [5mC] = 5-methylcytosine
reported.endpoint: hGRN mRNA FC (FC)
Dear colleague, please return just the value in FC, with no unit written.

Example entries and their recorded answers appear below.
CO-6433: ASO designed to target an intragenic enhancer RNA (eRNA) (eG*e[5mC]*eA*e[5mC]*eT*eG*e[5mC]*eT*eG*e[5mC]*e[5mC]*e[5mC]*e[5mC]*e[5mC]*eA*eA*eG*eA*e[5mC]*eA) | 0.9
CO-6452: ASO designed to target an intragenic enhancer RNA (eRNA) (eT*eG*eG*e[5mC]*eT*eG*e[5mC]*e[5mC]*e[5mC]*e[5mC]*eT*e[5mC]*eA*e[5mC]*eG*eT*eT*eT*eG*e[5mC]) | 1.4
CO-6444: ASO designed to target an intragenic enhancer RNA (eRNA) (eT*eG*e[5mC]*e[5mC]*e[5mC]*eA*eA*eT*eG*e[5mC]*e[5mC]*e[5mC]*eA*eA*e[5mC]*eG*eT*eG*eA*eG) | 1.0

Let us examine a further case.
// field: hGRN mRNA FC; key: CO-6442: ASO designed to target an intragenic enhancer RNA (eRNA) (e[5mC]*eT*eG*eG*eG*eA*eG*e[5mC]*e[5mC]*eT*eG*eG*e[5mC]*eT*eG*eA*eT*eG*e[5mC]*eA) ; value = 1.2
